Form field: pKd (one value per entry).
- Target System: AimRKat (Bacillus phage Katmira (prophage of Bacillus subtilis KATMIRA1933)) (UniProt A0A7G5CHT1)
- Run Description: BLI
- Test Conditions: BLI: PBS (0.01% Tween, 0.1% BSA for hydration, baseline and dissociation), AimR 0.015-2.5 uM, temperature not stated; EMSA: 50 mM Tris pH 8, 250 mM NaCl, room …
Units for pKd: none; it is -log10 of a concentration expressed in mol/L.

{"columns": ["Entry Sequence", "Measurement"],
 "data": [
  ["GTTGATCACTTAAATATTAAGTTTTTATAACATCTAGTGATGGCC (double strand) [aimX-boxKat BLI probe (DNA_Kat_b)]", 7.64]
]}

Which measured pKd value corresponds to GTTGATCACTTAAATATTAGGTTTTAATAACATCTAGTGATGGCC (double strand) [aimX-boxSPb BLI probe (DNA_SPb_b)] ?
7.67
